Values were extracted from patent US5449662A.

Target: ANP clearance receptor on bovine aortic smooth muscle (BASM) cells (Bos taurus)
Construct: endogenous in cells
Sequence (P10730 42-537): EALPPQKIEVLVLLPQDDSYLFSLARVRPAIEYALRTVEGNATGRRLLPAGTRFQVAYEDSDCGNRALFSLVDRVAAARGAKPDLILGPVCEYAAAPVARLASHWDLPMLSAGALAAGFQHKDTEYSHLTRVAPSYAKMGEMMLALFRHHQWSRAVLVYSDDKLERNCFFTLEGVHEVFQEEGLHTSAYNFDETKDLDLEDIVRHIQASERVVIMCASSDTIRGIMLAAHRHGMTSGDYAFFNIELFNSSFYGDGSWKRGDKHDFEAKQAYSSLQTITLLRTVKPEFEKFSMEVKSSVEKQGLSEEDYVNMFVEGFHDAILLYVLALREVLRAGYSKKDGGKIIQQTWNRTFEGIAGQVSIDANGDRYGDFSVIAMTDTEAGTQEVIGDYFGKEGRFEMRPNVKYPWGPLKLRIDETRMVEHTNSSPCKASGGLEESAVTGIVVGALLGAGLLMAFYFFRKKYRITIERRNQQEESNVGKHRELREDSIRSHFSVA
Assay: BASM receptor binding assay (competition with I125 labeled rANP(102-126))
Conditions: read-out: Ki(app)
Numbered stars: 1 amine (or outer) side, 2 acyl side, 3 side chain; on linkers, the order of the positions; unused ones are H or OH. Square brackets hold non-standard residues; d marks the D form. Peptide text beside a SMILES is read from it. * marks the point of attachment. γGlu = O=C(O)[C@H](CCC(=O)[*:2])N[*:1]; X2 = O=C(Cc1ccc(N[*:1])cc1)[*:2]; X1 = O=C(C(CS)Cc1ccccc1)*
Recorded Ki, one value per entry.
Give just the number in nM; leave the unit off.

// solved cases for Ki follow
molecule	Ki [nM]
CC[C@H](C)[C@H](NC(=O)[C@H](CCCNC(=N)N)NC(=O)[C@H](CC(=O)O)NC(=O)[C@@H](NC(=O)[C@H](CCCNC(=N)N)NC(=O)Cc1ccc(NC(=O)[C@H](Cc2ccccc2)NC(Cc2ccccc2)C(=O)O)cc1)[C@@H](C)CC)C(N)=O (stereo partly drawn) [Analog 445, F[N]F-4-APA-R-I-D-R-I-NH2]	6.5
CC[C@H](C)[C@H](NC(=O)[C@H](CCCNC(=N)N)NC(=O)[C@H](CC(=O)O)NC(=O)[C@@H](NC(=O)[C@H](CCCNC(=N)N)NC(=O)CC[C@H](NC(=O)C(CS)Cc1ccccc1)C(=O)O)[C@@H](C)CC)C(N)=O (stereo partly shown) [Analog 78] ({X1-γGlu}-RIDRI-NH2)	202
CC[C@H](C)[C@H](NC(=O)[C@H](CCCNC(=N)N)NC(=O)[C@H](CC(=O)O)NC(=O)[C@@H](NC(=O)[C@H](CCCNC(=N)N)NC(=O)CC[C@H](NC(=O)[C@H](Cc1ccccc1)NC(CCc1ccccc1)C(=O)O)C(=O)O)[C@@H](C)CC)C(N)=O (stereo partly shown)	58.2
CC[C@H](C)[C@H](NC(=O)[C@H](CCCNC(=N)N)NC(=O)[C@H](CC(=O)O)NC(=O)[C@@H](NC(=O)[C@H](CCCNC(=N)N)NC(=O)CNC(=O)[C@H](CC(=O)O)NC(=O)C(CS)Cc1ccccc1)[C@@H](C)CC)C(N)=O (stereo partly shown) [Analog 12] (X1-DGRIDRI-NH2)	207
CC[C@H](C)[C@H](NC(=O)[C@H](CCCNC(=N)N)NC(=O)[C@H](CC(=O)O)NC(=O)[C@@H](NC(=O)[C@H](CCCNC(=N)N)NC(=O)CNC(=O)CNC(Cc1ccccc1)C(=O)O)[C@@H](C)CC)C(N)=O (stereo partly shown)	66.9
CC[C@H](C)[C@H](NC(=O)[C@H](CCCNC(=N)N)NC(=O)[C@H](CC(=O)O)NC(=O)[C@@H](NC(=O)[C@H](CCCNC(=N)N)NC(=O)CNC(=O)CNC(=O)C(CS)Cc1ccccc1)[C@@H](C)CC)C(N)=O (stereo partly drawn) [Analog 1, MBP-G-G-R-I-D-R-I-NH2] (X1-GGRIDRI-NH2)	19.6

## Task Bench note: what Ki did CC[C@H](C)[C@H](NC(=O)[C@H](CCCNC(=N)N)NC(=O)[C@H](CC(=O)O)NC(=O)[C@@H](NC(=O)[C@H](CCCNC(=N)N)NC(=O)Cc1ccc(NC(=O)C(CS)Cc2ccccc2)cc1)[C@@H](C)CC)C(N)=O (stereo partly drawn) [Analog 122, MBP-4-APA--R--I--D--R--I--NH2] (X1-[X2]RIDRI-NH2) show?
## Result 10.9

---

Recorded inhibition at 1 µM, one value per entry.
target: Endopeptidase 24.11 (Rattus norvegicus, UniProt P07861); construct: rat urine was collected and desalted on Sephadex G-25; from tissue; host or cells: rat urine, desalted on Sephadex G-25; experiment: Inhibition of endopeptidase 24.11 (cleavage of rANP(99-126), HPLC); type: biochemical; conditions: 1 uM; read-out: % Inhibition of Metabolite Formation
Numbered stars: 1 amine (or outer) side, 2 acyl side, 3 side chain; on linkers, the order of the positions; unused ones are H or OH. Square brackets hold non-standard residues; d marks the D form. Peptide text beside a SMILES is read from it. * marks the point of attachment. X2 = O=C(Cc1ccc(N[*:1])cc1)[*:2]; X1 = O=C(C(CS)Cc1ccccc1)*
Give just the number in %; leave the unit off.

// solved cases for inhibition at 1 µM follow
molecule	quantitativeReadout
O=C(O)CNC(=O)C(CS)Cc1ccccc1 (stereo not shown) [Thiorphan, thiorphan, reference compound]	67
CC[C@H](C)[C@H](NC(=O)[C@H](CCCNC(=N)N)NC(=O)[C@H](CC(=O)O)NC(=O)[C@@H](NC(=O)[C@H](CCCNC(=N)N)NC(=O)CNC(=O)CNC(=O)C(CS)Cc1ccccc1)[C@@H](C)CC)C(N)=O (stereo partly drawn) [Analog 1, MBP-G-G-R-I-D-R-I-NH2] (X1-GGRIDRI-NH2)	45
CC(C)C[C@H](NP(=O)(O)O[C@@H]1O[C@@H](C)[C@H](O)[C@@H](O)[C@H]1O)C(=O)N[C@@H](Cc1c[nH]c2ccccc12)C(=O)O [Phosphoramidon, phosphoramidon, reference compound]	80

Next item in the queue.
## Task Bench note: what inhibition at 1 µM did CC[C@H](C)[C@H](NC(=O)[C@H](CCCNC(=N)N)NC(=O)[C@H](CC(=O)O)NC(=O)[C@@H](NC(=O)[C@H](CCCNC(=N)N)NC(=O)Cc1ccc(NC(=O)C(CS)Cc2ccccc2)cc1)[C@@H](C)CC)C(N)=O (stereo partly drawn) [Analog 122, MBP-4-APA--R--I--D--R--I--NH2] (X1-[X2]RIDRI-NH2) show?
## Result 72

---

Recorded inhibition at 10 µM, one value per entry.
Target: Endopeptidase 24.11 (Rattus norvegicus)
Construct: rat urine was collected and desalted on Sephadex G-25; from tissue; host or cells: rat urine, desalted on Sephadex G-25
Sequence (P07861 1-750): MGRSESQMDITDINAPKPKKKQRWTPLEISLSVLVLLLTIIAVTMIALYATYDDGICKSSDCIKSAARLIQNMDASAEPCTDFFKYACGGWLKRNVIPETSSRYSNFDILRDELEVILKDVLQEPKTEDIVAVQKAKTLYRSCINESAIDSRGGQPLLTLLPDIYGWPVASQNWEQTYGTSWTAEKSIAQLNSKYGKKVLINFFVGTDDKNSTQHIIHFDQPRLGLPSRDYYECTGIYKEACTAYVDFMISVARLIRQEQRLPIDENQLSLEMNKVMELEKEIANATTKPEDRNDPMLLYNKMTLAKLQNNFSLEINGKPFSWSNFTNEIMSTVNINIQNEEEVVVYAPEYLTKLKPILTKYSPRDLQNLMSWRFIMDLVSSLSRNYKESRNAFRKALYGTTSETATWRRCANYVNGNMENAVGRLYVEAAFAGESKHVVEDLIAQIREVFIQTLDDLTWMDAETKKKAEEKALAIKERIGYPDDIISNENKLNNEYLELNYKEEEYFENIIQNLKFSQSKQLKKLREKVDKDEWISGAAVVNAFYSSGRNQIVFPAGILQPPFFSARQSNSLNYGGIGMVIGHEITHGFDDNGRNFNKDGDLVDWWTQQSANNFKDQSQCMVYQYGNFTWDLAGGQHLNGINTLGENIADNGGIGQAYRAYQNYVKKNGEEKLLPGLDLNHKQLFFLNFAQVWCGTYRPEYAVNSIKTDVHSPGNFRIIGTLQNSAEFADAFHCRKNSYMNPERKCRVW
Assay: Inhibition of endopeptidase 24.11 (cleavage of rANP(99-126), HPLC)
Format: biochemical
Conditions: 10 uM; read-out: % Inhibition of Metabolite Formation
Numbered stars: 1 amine (or outer) side, 2 acyl side, 3 side chain; on linkers, the order of the positions; unused ones are H or OH. Square brackets hold non-standard residues; d marks the D form. Peptide text beside a SMILES is read from it. * marks the point of attachment. X2 = O=C(Cc1ccc(N[*:1])cc1)[*:2]; X1 = O=C(C(CS)Cc1ccccc1)*
Give just the number in %; leave the unit off.

molecule	measuredParameter	quantitativeReadout
CC[C@H](C)[C@H](NC(=O)[C@H](CCCNC(=N)N)NC(=O)[C@H](CC(=O)O)NC(=O)[C@@H](NC(=O)[C@H](CCCNC(=N)N)NC(=O)CNC(=O)CNC(=O)C(CS)Cc1ccccc1)[C@@H](C)CC)C(N)=O (stereo partly drawn) [Analog 1, MBP-G-G-R-I-D-R-I-NH2] (X1-GGRIDRI-NH2)	inhibition at 10 µM	92
O=C(O)CNC(=O)C(CS)Cc1ccccc1 (centres unmarked) [Thiorphan, thiorphan, reference compound]	inhibition at 10 µM	92
CC[C@H](C)[C@H](NC(=O)[C@H](CCCNC(=N)N)NC(=O)[C@H](CC(=O)O)NC(=O)[C@@H](NC(=O)[C@H](CCCNC(=N)N)NC(=O)Cc1ccc(NC(=O)C(CS)Cc2ccccc2)cc1)[C@@H](C)CC)C(N)=O (stereo partly drawn) [Analog 122, MBP-4-APA--R--I--D--R--I--NH2] (X1-[X2]RIDRI-NH2)	inhibition at 10 µM	97
CC[C@H](C)[C@H](NC(=O)[C@H](CCCNC(=N)N)NC(=O)[C@H](CC(=O)O)NC(=O)[C@@H](NC(=O)[C@H](CCCNC(=N)N)NC(=O)Cc1ccc(NC(=O)[C@H](Cc2ccccc2)NC(Cc2ccccc2)C(=O)O)cc1)[C@@H](C)CC)C(N)=O (stereo partly drawn) [Analog 445, F[N]F-4-APA-R-I-D-R-I-NH2]	inhibition at 10 µM	0

Next item in the queue.
## Task Bench note: what inhibition at 10 µM did CC(C)C[C@H](NP(=O)(O)O[C@@H]1O[C@@H](C)[C@H](O)[C@@H](O)[C@H]1O)C(=O)N[C@@H](Cc1c[nH]c2ccccc12)C(=O)O [Phosphoramidon, phosphoramidon, reference compound] show?
## Result 97
